# Tested on: KM-20L2
# experimental details: NCI tumour cell line growth inhibition, 48 h
Active and inactive are the calls of the source. Cut-off read from the data, not from the text of the source: active = GI50 up to about 1.1 µM and inactive = higher.
Outcome (select one): active, inactive

Before answering, review these 10 worked examples.
# compound, answer label
records = [
    ("COC1OC(C)C(OC(=O)C(C)(C)C)C(C)(O)C1O (stereo not given)", "inactive"),
    ("NS(=O)(=O)c1cc2c(cc1Cl)NC(C(=O)c1cc(=O)c3ccc(O)cc3o1)=NS2(=O)=O", "inactive"),
    ("CC1[C@@H]2CC=C3C4CCC5Cc6nc7c(nc6C[C@@]5(C)C4CC(=O)[C@]32CO[C@@]1(O)C(O)CC(C)(C)O)CC1CCC2C3=C[C@H]4O[C@@]5(O[C@@](C)(CO)C[C@@H]5O)C(C)[C@@]4(O)[C@]3(C)[C@@H](O)CC2[C@]1(C)C7 (stereo not given in full)", "active"),
    ("O=C(O)C12C=CC(C1)c1ccccc12 (stereo not given)", "inactive"),
    ("O=C1C=C(c2c(O)ccc3ccccc23)c2cc(O)ccc2C1=O", "inactive"),
    ("FC(F)(F)c1ccc2nc(Nc3ccc(Cl)c(Cl)c3)c(-c3ccccc3)nc2c1", "inactive"),
    ("CCCCCN(CCCCC)C(=O)[C@@H](CCC(=O)O)NC(=O)c1cc2ccccc2[nH]1", "inactive"),
    ("CCCCCCCCCCCCCCCC[N+](C)(C)Cc1ccc(C[N+](C)(C)CCCCCCCCCCCCCCCC)cc1", "inactive"),
    ("Cc1cc2c(cc1C)[n+]([O-])c(-c1c(Cl)cccc1Cl)c(N)[n+]2[O-]", "inactive"),
    ("CS/C(=N\\C(=S)Nc1ccccc1)Nc1ccccc1", "inactive"),
]

In this assay, the call recorded for Cc1ccc(C)c(N2C(=O)C(=O)C(c3nc4ccccc4o3)/C(=N/N)C2=O)c1 (stereo not given) was what?
inactive

In this assay, the call recorded for `C/C=C(/I)CBr` was what?
inactive
